Test system: K562 p21-ffLuc reporter (wildtype TP53)
Test: cells
Settings: Homo sapiens, K562, read-out: 461 / 5.3 / 107
MEASUREMENT NAME: pEC50
Conceptually, pEC50 converts a concentration in mol/L into minus its log10.

## Task Quick check: pEC50 of "Cc1ncc(Cl)cc1NCc1ccc(C(=O)N[C@@H](CC2CCCC2)C(=O)NC2CC2)s1" ?
## Result 6.66

---

Molecular target: PPM1D (Homo sapiens, UniProt O15297)
Sequence (O15297 1-420): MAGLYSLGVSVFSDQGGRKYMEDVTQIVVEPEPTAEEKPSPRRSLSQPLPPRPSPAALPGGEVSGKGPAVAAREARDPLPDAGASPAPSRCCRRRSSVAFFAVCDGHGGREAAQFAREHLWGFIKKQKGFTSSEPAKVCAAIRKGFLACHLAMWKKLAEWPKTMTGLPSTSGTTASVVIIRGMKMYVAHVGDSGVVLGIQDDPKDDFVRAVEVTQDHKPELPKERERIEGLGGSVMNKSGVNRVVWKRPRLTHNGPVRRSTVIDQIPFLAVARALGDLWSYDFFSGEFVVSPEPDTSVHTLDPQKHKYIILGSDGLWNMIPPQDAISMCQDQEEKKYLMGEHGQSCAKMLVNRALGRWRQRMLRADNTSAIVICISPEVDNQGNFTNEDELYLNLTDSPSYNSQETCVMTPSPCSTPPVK
MEASUREMENT NAME: pIC50
Conceptually, pIC50 converts a concentration in mol/L into minus its log10.

## Task Quick check: pIC50 of Cc1ncc(Cl)cc1NCc1ccc(C(=O)N[C@@H](CC2CCCC2)C(=O)NC2CC2)s1 [GSK2830371] ?
## Result 7.70

---

Molecular target: UniProt O15297
Sequence (O15297 1-420): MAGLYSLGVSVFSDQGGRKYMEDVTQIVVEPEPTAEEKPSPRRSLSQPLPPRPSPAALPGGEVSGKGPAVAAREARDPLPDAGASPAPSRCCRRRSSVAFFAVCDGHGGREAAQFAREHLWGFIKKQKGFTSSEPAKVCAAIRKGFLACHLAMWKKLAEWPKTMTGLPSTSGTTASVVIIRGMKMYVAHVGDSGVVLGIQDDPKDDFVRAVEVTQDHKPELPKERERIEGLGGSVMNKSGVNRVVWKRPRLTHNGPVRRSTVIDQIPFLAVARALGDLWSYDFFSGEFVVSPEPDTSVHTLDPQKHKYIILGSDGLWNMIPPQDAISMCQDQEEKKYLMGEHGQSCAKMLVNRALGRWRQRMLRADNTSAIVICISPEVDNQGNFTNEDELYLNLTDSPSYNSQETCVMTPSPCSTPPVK
MEASUREMENT NAME: Kd
Express the reported value numerically, then name its unit.

## Task Quick check: Kd of "Cc1ncc(Cl)cc1NCc1ccc(C(=O)N[C@@H](CC2CCCC2)C(=O)NC2CC2)s1" ?
## Result 8 nM
